Experimental Target: PAC1 receptor (Homo sapiens, UniProt P41586)
Sequence (P41586 21-468): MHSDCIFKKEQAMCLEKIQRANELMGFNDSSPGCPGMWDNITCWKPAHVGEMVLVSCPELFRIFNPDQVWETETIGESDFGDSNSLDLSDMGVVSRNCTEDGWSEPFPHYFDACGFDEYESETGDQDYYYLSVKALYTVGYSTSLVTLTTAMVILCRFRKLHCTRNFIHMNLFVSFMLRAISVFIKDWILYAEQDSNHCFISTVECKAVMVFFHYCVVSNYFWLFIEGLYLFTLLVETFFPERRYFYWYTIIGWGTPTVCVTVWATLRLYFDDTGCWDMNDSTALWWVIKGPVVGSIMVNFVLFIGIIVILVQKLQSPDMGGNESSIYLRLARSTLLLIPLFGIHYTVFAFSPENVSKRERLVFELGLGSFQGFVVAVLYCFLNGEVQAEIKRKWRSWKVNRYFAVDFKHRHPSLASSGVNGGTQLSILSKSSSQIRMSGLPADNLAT
Experimental Protocol: PACAP-stimulated ERK phosphorylation/activation in HEK PAC1-EGFP receptor cell line
Condition Info: normalized to total ERK levels; approximate/apparent; FIG. 4; read-out: IC50 in inhibiting PACAP-stimulated ERK activation
Endpoint: IC50

Param item = `O=C(N/N=C/c1cccc2c1ccn2Cc1cc(F)cc(F)c1)c1ccc(O)c(Cl)c1` ; retrieve measured IC50.
8 to 10 µM

Values from patent US12453716B2
